Give pKd for every item shown.
Target: T1, recombinant CD3D&E protein (human CD3-his tag) (human, UniProt P04234 22-105; P07766 23-126, limits assumed)
T1 construct: Analyte in Biacore; also called CD3D&E-His; CD3d&ε-His
T1 sequence (P04234 22-105 limits assumed, chain 1 of 2): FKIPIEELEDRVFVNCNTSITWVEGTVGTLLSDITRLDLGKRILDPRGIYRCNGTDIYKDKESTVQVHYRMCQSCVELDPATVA
T1 sequence (P07766 23-126 limits assumed, chain 2 of 2): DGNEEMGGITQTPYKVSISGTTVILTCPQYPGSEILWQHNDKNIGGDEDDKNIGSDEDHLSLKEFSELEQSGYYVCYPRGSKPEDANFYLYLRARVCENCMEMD
Assay: SPR Biacore, Ab captured on Protein A;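 note: humanized antibodies on a Protein A chip, human CD3-his analyte flowed over in serial dilutions for 3 min, dissociation tracked 120–360 s on a Biacore T200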
Field pKd (float): negative decimal logarithm of the concentration in molar.

Lookup result for Hu155A9B1-14 (antibody, V domains shown, humanized mAb) VH: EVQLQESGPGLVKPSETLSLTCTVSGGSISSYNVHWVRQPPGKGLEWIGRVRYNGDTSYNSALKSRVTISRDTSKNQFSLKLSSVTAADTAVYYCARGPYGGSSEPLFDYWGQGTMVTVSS VL: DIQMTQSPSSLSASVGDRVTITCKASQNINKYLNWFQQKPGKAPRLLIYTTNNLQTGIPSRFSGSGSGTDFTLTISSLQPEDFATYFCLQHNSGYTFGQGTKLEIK ; measured pKd: 7.10

Lookup result for Hu192A7B9-6 (antibody, V domains shown, humanized mAb) VH: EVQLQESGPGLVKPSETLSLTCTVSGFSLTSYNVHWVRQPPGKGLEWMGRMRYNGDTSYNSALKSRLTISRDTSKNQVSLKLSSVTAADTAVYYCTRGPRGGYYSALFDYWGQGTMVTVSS VL: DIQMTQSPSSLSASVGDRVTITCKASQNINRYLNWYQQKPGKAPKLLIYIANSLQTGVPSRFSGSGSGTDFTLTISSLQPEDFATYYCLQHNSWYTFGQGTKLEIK ; measured pKd: 6.55

Lookup result for Hu155A9B1-7 (antibody, V domains shown, humanized mAb) VH: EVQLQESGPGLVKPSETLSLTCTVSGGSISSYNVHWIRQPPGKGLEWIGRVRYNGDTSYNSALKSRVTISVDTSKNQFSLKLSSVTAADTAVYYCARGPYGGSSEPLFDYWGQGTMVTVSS VL: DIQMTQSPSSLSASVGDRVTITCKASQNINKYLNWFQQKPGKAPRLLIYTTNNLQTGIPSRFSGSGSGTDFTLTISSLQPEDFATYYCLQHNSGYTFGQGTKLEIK ; measured pKd: 7.87

Cited source for all entries: patent US20240417469A1
